molecular target: T1, Rhesus PCSK9 (rhesus, UniProt A8T666 31-692, limits assumed); assay: Biacore (SPR), IgG2 captured, PCSK9 as analyte
T1 construct: also called rhPCSK9
T1 sequence (A8T666 31-692 limits assumed): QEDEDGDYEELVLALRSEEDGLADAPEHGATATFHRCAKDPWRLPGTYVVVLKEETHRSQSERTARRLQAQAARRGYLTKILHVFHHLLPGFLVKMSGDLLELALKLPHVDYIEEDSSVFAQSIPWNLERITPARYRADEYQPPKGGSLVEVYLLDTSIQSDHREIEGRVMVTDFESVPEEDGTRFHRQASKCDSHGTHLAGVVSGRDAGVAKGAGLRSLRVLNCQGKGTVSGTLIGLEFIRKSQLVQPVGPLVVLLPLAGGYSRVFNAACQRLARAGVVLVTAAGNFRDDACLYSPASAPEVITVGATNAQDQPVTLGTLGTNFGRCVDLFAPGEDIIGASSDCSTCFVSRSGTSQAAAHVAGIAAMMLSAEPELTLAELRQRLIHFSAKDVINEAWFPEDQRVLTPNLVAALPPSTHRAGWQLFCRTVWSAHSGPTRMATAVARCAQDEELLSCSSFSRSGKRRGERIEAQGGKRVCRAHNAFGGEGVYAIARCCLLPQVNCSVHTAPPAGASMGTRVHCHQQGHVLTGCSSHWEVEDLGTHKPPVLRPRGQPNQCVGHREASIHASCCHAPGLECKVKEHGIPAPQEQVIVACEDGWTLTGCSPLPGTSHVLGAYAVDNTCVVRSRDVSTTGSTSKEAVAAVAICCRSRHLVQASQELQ
Quick reference for pKd among some binders
Just the number, please; pKd means minus log10 of the concentration in mol/L.

Please review the entries below; each comes with its answer.
binder="AX211 IgG2 (antibody, V domains shown) VH: QVQLLESGGGLVQPGGSLRLSCKASGYTFSRQGFTWVRQAPGKGLEWIGWIDPGNGGTRYNEKFKGKATISRDNSKNTLYLQMNSLRAEDTAVYYCARYRVGYSLDYWGQGTLVTVSS VL: EIVLTQSPATLSLSPGERATITCRASQYVGSYLNWYQQKPGQAPRLLIYDASNRATGIPARFSGSGSGTDFTLTISSLEPEDFAVYYCQVWDSSPPVVFGGGTKVEIK" assay_value=9.31
binder="AX114 IgG2 (antibody, V domains shown) VH: EVQLLESGGGLVQPGGSLRLSCKASGYTFSSYGMYWVRQAPGKGLEWIGWIDPGSGGTKYNEKFKGKATISRDNSKNTLYLQMNSLRAEDTAVYYCARERYGYYFDYWGQGTLVTVSS VL: EIVLTQSPATLSLSPGERATITCRASQYVGTYLNWYQQKPGQAPRLLIYDASNRATGIPARFSGSGSGTDFTLTISSLEPEDFAVYYCQVWDSSPPVAFGGGTKVEIK" assay_value=7.94
binder="AX213 IgG2 (antibody, V domains shown) VH: EVQLLESGGGLVQPGGSLRLSCKASGYTFSRYGINWVRQAPGKGLEWIGRIDPGNGGTRYNEKFKGKATISRDNSKNTLYLQMNSLRAEDTAVYYCARANDGYSFDYWGQGTLVTVSS VL: EIVLTQSPATLSLSPGERATITCRASQYVGSYLNWYQQKPGQAPRLLIYDASNRATGIPARFSGSGSGTDFTLTISSLEPEDFAVYYCQVWDSSPPVVFGGGTKVEIKR" assay_value=8.72
binder="AX137 IgG2 (antibody, V domains shown) VH: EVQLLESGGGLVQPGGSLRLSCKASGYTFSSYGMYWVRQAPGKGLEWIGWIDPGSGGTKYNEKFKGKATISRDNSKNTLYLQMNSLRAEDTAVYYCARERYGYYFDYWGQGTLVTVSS VL: EIVLTQSPATLSLSPGERATITCRASQYIGSYLNWYQQKPGQAPRLLIYDASNRATGIPARFSGSGSGTDFTLTISSLEPEDFAVYYCQAWDSSPPVVFGGGTKVEIK" assay_value=8.00
binder="AX210 IgG2 (antibody, V domains shown) VH: QVQLLESGGGLVQPGGSLRLSCKASGYTFSSYSIYWVRQAPGKGLEWIGWIDPGNGGTRYNQKFQSKATISRDNSKNTLYLQMNSLRAEDTAVYYCARARVGYSLDYWGQGTLVTVSS VL: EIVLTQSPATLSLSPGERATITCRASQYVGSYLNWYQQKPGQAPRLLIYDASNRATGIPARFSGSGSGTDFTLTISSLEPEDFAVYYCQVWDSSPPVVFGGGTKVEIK" assay_value=9.03

Kindly review the next binder as well.
Query: Which pKd reading was recorded for the binder AX212 IgG2 (antibody, V domains shown) VH: QVQLLESGGGLVQPGGSLRLSCKASGYTFSSYSFSWVRQAPGKGLEWIGYIDPGSGGTKYNQKFQGKATISRDNSKNTLYLQMNSLRAEDTAVYYCARQRVGYSLDYWGQGTLVTVSS VL: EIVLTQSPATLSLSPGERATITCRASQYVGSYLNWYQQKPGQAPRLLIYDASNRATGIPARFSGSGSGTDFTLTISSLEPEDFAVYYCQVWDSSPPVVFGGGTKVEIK ?
Reply: 9.11
